target: 3',5'-cyclic-AMP phosphodiesterase 4D (Homo sapiens) (UniProt Q08499); assay: Inhibition of PDE4D using cAMP as substrate at 30 uM preincubated for 15 mins prior substrate addition measured after 1 hr by […]
Sequence (Q08499 whole entry): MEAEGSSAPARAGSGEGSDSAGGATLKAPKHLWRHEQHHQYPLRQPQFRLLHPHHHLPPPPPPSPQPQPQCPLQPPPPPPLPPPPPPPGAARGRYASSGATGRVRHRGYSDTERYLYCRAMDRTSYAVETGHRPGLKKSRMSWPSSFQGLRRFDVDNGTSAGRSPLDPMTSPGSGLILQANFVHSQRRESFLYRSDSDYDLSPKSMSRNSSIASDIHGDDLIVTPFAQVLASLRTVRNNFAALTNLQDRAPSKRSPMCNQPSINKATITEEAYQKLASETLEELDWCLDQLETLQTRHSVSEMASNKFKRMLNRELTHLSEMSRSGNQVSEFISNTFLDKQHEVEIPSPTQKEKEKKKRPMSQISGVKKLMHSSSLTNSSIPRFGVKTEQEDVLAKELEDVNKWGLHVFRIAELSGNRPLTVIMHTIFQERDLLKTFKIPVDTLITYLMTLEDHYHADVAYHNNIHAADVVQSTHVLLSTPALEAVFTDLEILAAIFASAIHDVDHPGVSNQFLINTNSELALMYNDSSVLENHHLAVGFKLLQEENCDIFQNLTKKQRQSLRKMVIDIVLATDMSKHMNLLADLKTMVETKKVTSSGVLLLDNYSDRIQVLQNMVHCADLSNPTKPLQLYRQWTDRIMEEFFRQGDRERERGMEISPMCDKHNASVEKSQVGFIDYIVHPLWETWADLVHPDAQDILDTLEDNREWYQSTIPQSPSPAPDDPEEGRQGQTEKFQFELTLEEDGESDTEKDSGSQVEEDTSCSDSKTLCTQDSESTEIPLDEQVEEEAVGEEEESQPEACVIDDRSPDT
inhibition below 50% gives class 0; inhibition at or above it gives class 1.

{"columns": ["smiles_structure", "cat"],
 "data": [
  ["CC1(C)Cc2cnn(-c3ccc(F)cc3)c2-c2cc(Br)ccc21", "class 1"],
  ["CC1(C)Cc2cnn(C(C)(C)C)c2-c2cc(Br)ccc21", "class 0"],
  ["Cc1cccc(-n2ncc3c2-c2cc([N+](=O)[O-])ccc2C(C)(C)C3)c1C", "class 1"],
  ["CC1(C)Cc2cnn(-c3ccccc3)c2-c2cc([N+](=O)[O-])ccc21", "class 1"]
]}

====

biological target: UniProt:Q07343; assay: Inhibition of recombinant His-tagged PDE4B expressed in Sf9 cells using cAMP as substrate at 30 uM preincubated for 15 mins prior substrate addition measured after 1 hr by […]
inhibition below 70% gives F; inhibition at or above it gives T.

{"columns": ["smiles_structure", "cat"],
 "data": [
  ["CC1(C)Cc2cnn(-c3ccc(C(F)(F)F)cc3)c2-c2cc(Br)ccc21", "F"],
  ["Cc1ccc(-n2ncc3c2-c2cc(Br)ccc2C(C)(C)C3)cc1", "F"],
  ["CC1(C)Cc2cnn(-c3ccc(F)cc3)c2-c2cc(Br)ccc21", "T"],
  ["CC1(C)Cc2cnn(-c3ccc(F)cc3)c2-c2cc(NS(C)(=O)=O)ccc21", "T"],
  ["CC(C)n1ncc2c1-c1cc(Br)ccc1C(C)(C)C2", "F"],
  ["CC1(C)Cc2cnn(-c3ccc(F)cc3)c2-c2cc([N+](=O)[O-])ccc21", "F"],
  ["Cc1cccc(-n2ncc3c2-c2cc([N+](=O)[O-])ccc2C(C)(C)C3)c1C", "T"],
  ["CC1(C)Cc2cnn(-c3ccccc3)c2-c2cc(Br)ccc21", "T"]
]}

====

target: 3',5'-cyclic-AMP phosphodiesterase 4B (Homo sapiens, UniProt Q07343); assay: Inhibition of recombinant His-tagged PDE4B expressed in Sf9 cells using cAMP as substrate at 30 uM preincubated for 15 mins prior substrate addition measured after 1 hr by […]
Sequence (Q07343 whole entry): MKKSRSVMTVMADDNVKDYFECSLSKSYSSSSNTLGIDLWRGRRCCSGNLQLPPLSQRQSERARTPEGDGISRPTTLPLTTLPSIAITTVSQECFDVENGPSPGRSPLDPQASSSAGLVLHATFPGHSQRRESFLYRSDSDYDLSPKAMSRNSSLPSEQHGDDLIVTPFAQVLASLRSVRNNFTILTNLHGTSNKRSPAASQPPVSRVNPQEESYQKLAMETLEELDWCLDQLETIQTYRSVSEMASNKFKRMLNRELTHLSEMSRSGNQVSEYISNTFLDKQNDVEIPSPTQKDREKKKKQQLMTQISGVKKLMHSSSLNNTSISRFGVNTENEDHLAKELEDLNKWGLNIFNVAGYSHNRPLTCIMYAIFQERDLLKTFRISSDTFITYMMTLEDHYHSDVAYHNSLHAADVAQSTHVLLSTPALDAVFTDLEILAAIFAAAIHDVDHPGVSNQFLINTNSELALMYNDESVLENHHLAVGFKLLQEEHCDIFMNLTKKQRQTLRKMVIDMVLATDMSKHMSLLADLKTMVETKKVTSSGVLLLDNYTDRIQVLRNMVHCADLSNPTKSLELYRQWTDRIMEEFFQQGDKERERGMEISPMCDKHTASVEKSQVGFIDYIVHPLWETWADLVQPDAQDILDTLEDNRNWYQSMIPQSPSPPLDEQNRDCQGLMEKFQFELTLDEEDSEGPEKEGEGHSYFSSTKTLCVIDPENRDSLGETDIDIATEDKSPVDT
Measured inhibition by item
readout: inhibition (%)

{"columns": ["smiles_structure", "readout", "recorded_value"],
 "data": [
  ["CC1(C)Cc2cnn(-c3ccc(F)cc3)c2-c2cc(NS(=O)(=O)c3ccccc3)ccc21", "inhibition", 75.6],
  ["CC1(C)Cc2cnn(-c3ccccc3)c2-c2cc([N+](=O)[O-])ccc21", "inhibition", 72.1],
  ["CC1(C)Cc2cnn(-c3ccc(Br)cc3)c2-c2cc(Br)ccc21", "inhibition", 60.3]
]}

====

molecular target: 3',5'-cyclic-AMP phosphodiesterase 4B (Homo sapiens, UniProt Q07343); experiment: Inhibition of recombinant His-tagged PDE4B expressed in Sf9 cells using cAMP as substrate at 30 uM preincubated for 15 mins prior substrate addition measured after 1 hr by […]

{"columns": ["smiles_structure", "inhibition (%)"],
 "data": [
  ["CC1(C)Cc2cnn(-c3ccc(Cl)cc3)c2-c2cc(Br)ccc21", 68.1],
  ["Cc1ccc(-n2ncc3c2-c2cc([N+](=O)[O-])ccc2C(C)(C)C3)cc1", 68.2],
  ["CC1(C)Cc2cnn(C(C)(C)C)c2-c2cc(Br)ccc21", 71.4]
]}
